Target or system: hNav1.7 (Homo sapiens, UniProt Q15858)
Sequence (Q15858 1-1977 isoform Q15858-3): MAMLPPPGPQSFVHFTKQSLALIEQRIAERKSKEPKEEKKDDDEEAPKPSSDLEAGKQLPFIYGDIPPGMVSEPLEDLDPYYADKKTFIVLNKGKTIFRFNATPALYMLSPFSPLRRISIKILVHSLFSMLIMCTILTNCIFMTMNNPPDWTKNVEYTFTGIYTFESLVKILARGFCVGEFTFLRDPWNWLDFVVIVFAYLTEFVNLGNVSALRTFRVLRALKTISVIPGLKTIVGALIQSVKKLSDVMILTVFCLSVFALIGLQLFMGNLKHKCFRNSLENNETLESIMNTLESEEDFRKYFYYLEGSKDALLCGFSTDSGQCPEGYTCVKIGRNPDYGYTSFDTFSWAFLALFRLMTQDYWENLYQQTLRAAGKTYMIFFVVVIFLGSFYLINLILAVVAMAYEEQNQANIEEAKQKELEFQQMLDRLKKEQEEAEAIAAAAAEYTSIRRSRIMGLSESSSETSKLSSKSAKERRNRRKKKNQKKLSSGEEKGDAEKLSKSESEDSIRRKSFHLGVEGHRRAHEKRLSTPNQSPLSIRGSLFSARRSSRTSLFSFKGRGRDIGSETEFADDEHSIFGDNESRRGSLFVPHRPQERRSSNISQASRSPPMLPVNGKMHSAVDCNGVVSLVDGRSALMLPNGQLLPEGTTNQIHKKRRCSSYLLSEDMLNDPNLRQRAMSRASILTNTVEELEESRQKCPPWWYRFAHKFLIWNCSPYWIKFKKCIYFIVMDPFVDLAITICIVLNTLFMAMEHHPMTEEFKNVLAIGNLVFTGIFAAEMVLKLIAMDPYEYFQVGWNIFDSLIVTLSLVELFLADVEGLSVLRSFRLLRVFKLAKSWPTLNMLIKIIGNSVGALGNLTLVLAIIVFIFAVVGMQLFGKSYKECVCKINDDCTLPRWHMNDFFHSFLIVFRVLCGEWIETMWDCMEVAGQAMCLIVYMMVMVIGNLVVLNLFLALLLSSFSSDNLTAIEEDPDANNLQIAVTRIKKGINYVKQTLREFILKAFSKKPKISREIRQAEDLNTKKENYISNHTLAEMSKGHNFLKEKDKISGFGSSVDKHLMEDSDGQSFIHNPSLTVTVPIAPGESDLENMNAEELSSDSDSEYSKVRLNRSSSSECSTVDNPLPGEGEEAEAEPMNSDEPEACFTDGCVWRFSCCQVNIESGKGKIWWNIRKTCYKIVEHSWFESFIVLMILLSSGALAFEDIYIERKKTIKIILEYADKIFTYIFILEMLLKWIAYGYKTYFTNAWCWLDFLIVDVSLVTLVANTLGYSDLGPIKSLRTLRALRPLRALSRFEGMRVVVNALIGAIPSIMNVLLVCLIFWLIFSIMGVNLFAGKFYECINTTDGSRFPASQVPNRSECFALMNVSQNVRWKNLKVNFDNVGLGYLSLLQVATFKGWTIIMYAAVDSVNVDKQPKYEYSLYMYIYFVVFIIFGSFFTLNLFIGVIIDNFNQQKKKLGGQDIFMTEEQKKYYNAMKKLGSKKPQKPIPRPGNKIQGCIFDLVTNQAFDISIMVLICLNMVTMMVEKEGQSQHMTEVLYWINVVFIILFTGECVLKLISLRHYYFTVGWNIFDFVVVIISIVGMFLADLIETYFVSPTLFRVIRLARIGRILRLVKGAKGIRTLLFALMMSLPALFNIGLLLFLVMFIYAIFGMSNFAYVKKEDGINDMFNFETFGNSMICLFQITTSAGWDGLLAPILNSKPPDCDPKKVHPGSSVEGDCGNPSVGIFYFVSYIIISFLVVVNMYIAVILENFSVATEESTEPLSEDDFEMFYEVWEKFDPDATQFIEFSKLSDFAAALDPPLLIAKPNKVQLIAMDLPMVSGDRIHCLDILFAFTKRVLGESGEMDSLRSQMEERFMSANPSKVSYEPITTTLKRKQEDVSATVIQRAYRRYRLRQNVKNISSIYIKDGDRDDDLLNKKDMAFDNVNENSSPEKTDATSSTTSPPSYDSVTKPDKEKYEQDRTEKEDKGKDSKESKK
Sequence (Q07699 19-218 partner): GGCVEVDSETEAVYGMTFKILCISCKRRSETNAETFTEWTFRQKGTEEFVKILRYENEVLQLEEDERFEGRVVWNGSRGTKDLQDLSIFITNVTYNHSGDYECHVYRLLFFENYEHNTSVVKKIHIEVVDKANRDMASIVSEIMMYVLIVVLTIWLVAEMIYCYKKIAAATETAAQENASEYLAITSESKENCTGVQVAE
Protocol summary: Tritiated compound binding (LBA) to membranes from cells expressing hNav1.7 and the β1 subunit, competitive binding
Condition info: competitive binding vs 100 pM [3H]compound, 18 h, room temperature, membranes with hNav1.7 and β1 subunit
Metric: IC50 (nM)

compound=O=C(O)[C@@H]1C[C@@H](F)CN1C(=O)c1cc(C2CC2)c(OCC2CCN(Cc3ccc(Cl)c(Cl)c3)CC2)cc1F target_or_system="hNav1.7 (Homo sapiens, UniProt Q15858)" metric=IC50 reported_value=110
compound=O=C(O)[C@@H]1CCCN1C(=O)c1cc(C2CC2)c(OC2CCN(Cc3cc(Cl)cc(Cl)c3)CC2)cc1F target_or_system="hNav1.7 (Homo sapiens, UniProt Q15858)" metric=IC50 reported_value=520
compound=O=C(NO)[C@@H]1C[C@@H](F)CN1C(=O)c1cc(C2CC2)c(OCC23CC4CC(CC(C4)C2)C3)cc1F target_or_system="hNav1.7 (Homo sapiens, UniProt Q15858)" metric=IC50 reported_value=470
compound="O=C(O)[C@@H]1[C@H]2C[C@H]2CN1C(=O)c1cc(C2CC2)c(OCC23CC4CC(CC(C4)C2)C3)cc1F (stereo in doubt)" target_or_system="hNav1.7 (Homo sapiens, UniProt Q15858)" metric=IC50 reported_value=25
compound=CC(C)Oc1ncc(CN2CCC(F)(COc3cc(F)c(C(=O)N4C[C@H](F)C[C@H]4C(=O)O)cc3C3CC3)CC2)cc1Cl target_or_system="hNav1.7 (Homo sapiens, UniProt Q15858)" metric=IC50 reported_value=51
compound=O=C(O)[C@@H]1[C@@H](O)CCN1C(=O)c1cc(C2CC2)c(OCC23CC4CC(CC(C4)C2)C3)cc1F target_or_system="hNav1.7 (Homo sapiens, UniProt Q15858)" metric=IC50 reported_value=600
compound="CC1O[C@H](C)[C@@H](C(=O)O)N1C(=O)c1cc(C2CC2)c(OCC23CC4CC(CC(C4)C2)C3)cc1F (stereo partly shown)" target_or_system="hNav1.7 (Homo sapiens, UniProt Q15858)" metric=IC50 reported_value=90
